Test: Lipophilicity, log D of the compound at pH 7.4
Type: physicochemical
Conditions: buffer
readout_type: logD
One number for each entry.

// `Nc1ccccc1NC(=O)c1ccc(CNC(=O)OCc2cccnc2)cc1` : logD value = 1.8

---

Target: Histone deacetylase 5 (Homo sapiens)
Sequence (Q9UQL6 whole entry): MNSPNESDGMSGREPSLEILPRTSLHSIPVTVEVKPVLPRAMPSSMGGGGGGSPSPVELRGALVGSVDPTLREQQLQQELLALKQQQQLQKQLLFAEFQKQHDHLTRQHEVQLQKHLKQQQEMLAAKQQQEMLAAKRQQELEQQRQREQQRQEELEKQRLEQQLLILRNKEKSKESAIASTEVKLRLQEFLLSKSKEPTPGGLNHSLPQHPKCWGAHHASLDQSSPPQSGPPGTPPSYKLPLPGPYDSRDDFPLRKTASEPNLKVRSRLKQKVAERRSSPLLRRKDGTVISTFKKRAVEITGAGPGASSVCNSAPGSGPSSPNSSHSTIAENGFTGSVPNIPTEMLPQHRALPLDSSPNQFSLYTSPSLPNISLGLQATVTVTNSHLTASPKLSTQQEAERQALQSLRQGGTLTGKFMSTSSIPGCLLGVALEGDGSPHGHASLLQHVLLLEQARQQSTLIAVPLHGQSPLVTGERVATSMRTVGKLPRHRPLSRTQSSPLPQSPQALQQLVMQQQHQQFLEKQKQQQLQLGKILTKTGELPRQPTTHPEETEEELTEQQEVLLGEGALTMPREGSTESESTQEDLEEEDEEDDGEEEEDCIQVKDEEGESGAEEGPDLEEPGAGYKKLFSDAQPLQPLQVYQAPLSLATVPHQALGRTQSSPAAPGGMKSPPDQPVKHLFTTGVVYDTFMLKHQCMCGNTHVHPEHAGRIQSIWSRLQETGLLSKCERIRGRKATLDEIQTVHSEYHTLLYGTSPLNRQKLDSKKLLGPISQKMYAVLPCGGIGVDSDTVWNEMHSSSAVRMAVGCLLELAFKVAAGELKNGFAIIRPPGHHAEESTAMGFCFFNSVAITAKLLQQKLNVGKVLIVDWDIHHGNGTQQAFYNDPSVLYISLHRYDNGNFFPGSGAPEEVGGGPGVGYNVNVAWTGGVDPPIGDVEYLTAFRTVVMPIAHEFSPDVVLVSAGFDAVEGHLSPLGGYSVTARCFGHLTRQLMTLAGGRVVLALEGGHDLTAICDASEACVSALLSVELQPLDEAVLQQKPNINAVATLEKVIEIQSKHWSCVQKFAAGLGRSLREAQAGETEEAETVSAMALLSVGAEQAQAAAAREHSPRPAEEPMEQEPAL
Assay: Inhibition of human recombinant C-terminal His-tagged HDAC5 expressed in baculovirus infected insect cells preincubated for 2 hrs followed by Fluor-de-Lys substrate addition measured after 30 mins by fluorescence assay
pIC50: −log10 of the molar value.
readout_type: pIC50

// `Nc1ccccc1NC(=O)CCCCCC(=O)Nc1ccccc1` : pIC50 value = < 3.74

---

Biological target: UniProt:Q13547
Sequence (Q13547 whole entry): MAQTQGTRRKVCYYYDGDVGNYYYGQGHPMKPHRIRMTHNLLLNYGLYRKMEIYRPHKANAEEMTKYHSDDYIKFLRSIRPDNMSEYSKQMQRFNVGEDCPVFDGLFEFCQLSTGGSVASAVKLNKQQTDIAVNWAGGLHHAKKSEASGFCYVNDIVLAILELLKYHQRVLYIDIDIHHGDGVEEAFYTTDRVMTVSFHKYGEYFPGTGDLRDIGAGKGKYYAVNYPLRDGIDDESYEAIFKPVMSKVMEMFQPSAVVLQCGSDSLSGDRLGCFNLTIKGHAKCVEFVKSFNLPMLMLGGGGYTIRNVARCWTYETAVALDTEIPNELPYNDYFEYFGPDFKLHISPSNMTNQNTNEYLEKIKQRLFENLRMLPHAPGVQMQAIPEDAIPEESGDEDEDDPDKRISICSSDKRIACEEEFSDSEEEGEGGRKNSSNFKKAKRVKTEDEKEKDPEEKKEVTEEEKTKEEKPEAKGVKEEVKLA
Assay: Inhibition of human full length C-terminal His/FLAG-tagged HDAC1 expressed in baculovirus infected Sf9 insect cells after 1 hr in presence of acetylated lysine substrate by fluorescence assay
readout_type: pIC50
Numbers only, as −log10 of the molar value.

// `O=C(/C=C(\CO)c1ccccc1)c1ccccc1` : pIC50 value = 5.56

---

Assay: Lipophilicity, log P of the compound at pH 7.4
Type: physicochemical
Conditions: buffer
readout_type: logD
Give bare numbers.

// `Nc1ccccc1NC(=O)c1ccc(CNC(=O)OCc2cccnc2)cc1` : logD value = 2.5

---

Target: Histone deacetylase 2 (Homo sapiens)
Sequence (Q92769 whole entry): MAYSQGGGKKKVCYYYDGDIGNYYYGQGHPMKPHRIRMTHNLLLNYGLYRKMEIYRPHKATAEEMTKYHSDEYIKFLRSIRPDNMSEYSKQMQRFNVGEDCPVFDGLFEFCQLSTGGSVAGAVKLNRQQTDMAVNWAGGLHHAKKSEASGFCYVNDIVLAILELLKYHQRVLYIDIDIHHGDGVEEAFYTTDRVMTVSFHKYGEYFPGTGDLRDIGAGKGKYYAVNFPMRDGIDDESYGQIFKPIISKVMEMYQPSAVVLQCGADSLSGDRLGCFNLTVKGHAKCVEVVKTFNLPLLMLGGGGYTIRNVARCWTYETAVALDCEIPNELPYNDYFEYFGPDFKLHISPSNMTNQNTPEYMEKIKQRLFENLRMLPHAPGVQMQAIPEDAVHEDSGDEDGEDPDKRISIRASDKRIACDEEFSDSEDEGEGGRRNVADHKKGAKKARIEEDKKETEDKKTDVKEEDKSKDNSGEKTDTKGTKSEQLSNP
Assay: Inhibition of human full length C-terminal His-tagged HDAC2 expressed in baculovirus infected Sf9 insect cells after 1 hr in presence of acetylated lysine substrate by fluorescence assay
readout_type: IC50 (µM)
One number for each entry, in µM.

// `O=C(/C=C(\CO)c1ccccc1)c1ccccc1` : IC50 value = 0.17

---

Biological target: Histone deacetylase 4 (Homo sapiens, UniProt P56524)
Sequence (P56524 whole entry): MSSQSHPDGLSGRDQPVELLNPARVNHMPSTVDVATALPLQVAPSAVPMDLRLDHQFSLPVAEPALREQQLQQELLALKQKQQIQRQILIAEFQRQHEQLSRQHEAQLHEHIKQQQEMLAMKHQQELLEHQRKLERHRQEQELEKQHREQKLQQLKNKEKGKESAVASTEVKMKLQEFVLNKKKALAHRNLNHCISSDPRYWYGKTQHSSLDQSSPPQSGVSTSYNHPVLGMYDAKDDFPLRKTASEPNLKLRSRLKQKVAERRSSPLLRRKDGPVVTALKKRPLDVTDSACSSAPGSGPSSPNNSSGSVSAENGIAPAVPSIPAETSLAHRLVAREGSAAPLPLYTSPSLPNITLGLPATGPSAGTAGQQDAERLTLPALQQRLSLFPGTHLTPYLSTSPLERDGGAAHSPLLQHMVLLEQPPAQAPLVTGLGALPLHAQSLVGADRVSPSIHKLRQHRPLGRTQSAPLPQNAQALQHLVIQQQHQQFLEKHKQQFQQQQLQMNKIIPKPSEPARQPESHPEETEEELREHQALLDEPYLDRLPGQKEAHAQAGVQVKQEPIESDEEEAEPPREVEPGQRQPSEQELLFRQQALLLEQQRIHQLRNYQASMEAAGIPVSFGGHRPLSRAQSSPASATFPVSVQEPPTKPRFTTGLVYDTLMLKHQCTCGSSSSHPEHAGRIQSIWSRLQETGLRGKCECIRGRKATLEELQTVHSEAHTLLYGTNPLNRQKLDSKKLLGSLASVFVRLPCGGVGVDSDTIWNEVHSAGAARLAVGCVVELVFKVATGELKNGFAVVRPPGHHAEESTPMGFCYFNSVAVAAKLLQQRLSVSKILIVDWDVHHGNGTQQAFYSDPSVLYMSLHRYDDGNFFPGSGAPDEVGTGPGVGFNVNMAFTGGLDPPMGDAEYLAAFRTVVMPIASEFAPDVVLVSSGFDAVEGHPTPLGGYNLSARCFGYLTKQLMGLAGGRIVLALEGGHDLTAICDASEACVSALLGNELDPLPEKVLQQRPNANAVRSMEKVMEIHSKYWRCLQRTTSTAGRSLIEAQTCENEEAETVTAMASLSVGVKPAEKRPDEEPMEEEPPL
Experiment: Inhibition of human recombinant N-terminal GST-tagged/C-terminal His-tagged HDAC4 expressed in baculovirus infected insect cells preincubated for 2 hrs followed by Fluor-de-Lys substrate addition measured after 30 mins by fluorescence assay
Type: cell-based
readout_type: IC50

// `Nc1ccccc1NC(=O)CCCCCC(=O)Nc1ccccc1` : IC50 value = > 180 µM

---

Target: Histone deacetylase 2 (Homo sapiens)
Experiment: Inhibition of human full length C-terminal His/FLAG-tagged HDAC2 expressed in baculovirus infected Sf9 cells preincubated for 3 hrs followed by fluorophore conjugated MAZ1600 substrate addition measured every 5 mins by fluorescence assay
readout_type: pIC50
Answers are plain numbers, as −log10 of the molar value.

// `C[C@H](CO)N1C[C@H](C)[C@H](CN(C)Cc2ccc(C(=O)Nc3ccccc3N)cc2)Oc2ccc(N(C)C)cc2CC1=O` : pIC50 value = 6.25

---

Molecular target: Histone deacetylase 3/Nuclear receptor corepressor 2 (HDAC3/NCoR2) (Homo sapiens)
Assay: Inhibition of human full length C-terminal His-tagged HDAC3/N-terminal GST-tagged human NCOR2 (395 to 489 residues) co-expressed in baculovirus infected Sf9 insect cells preincubated for 3 hrs followed by fluorophore conjugated MAZ1600 substrate addition measured every 5 mins by fluorescence assay
readout_type: IC50 (nM)
Numbers only, in nM.

// `C[C@H](CO)N1C[C@H](C)[C@H](CN(C)Cc2ccc(C(=O)Nc3ccccc3N)cc2)Oc2ccc(N(C)C)cc2CC1=O` : IC50 value = 1300

---

Target: Histone deacetylase 8 (Homo sapiens)
Sequence (Q9BY41 whole entry): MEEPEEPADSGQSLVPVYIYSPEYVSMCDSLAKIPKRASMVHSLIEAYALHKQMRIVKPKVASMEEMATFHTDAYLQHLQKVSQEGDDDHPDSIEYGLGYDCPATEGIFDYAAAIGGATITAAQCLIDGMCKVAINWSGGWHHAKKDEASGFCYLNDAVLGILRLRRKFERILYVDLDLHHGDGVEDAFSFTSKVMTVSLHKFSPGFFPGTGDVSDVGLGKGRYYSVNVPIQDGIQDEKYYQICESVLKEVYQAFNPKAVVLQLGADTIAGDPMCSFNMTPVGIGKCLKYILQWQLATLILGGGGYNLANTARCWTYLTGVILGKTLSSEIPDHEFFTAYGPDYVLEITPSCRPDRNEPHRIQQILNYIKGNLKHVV
Test: Inhibition of full length 6His-tagged HDAC8 (unknown origin) expressed in baculovirus infected Sf9 insect cells incubated for 17 hrs in presence of FAM-labeled acetylated peptide substrate by fluorescence assay
pIC50: −log10 of the molar value.
readout_type: pIC50

// `Nc1ccccc1NC(=O)CCCCCCC(=O)Nc1cccc(-c2cn(-c3ccccc3)nn2)c1` : pIC50 value = < 4.52
